assay: in vivo; design: species or system C57/BL6 mice; conditions: C57/BL6, in vivo; mouse, iv 5 mg/kg; read-out: apparent t1/2 (converted)
PARAMETER: half-life
Please answer using a numeric value trailed by its unit.

Returns the measured half-life for the input compound. Input: CS(=O)(=O)c1cccc(-c2ccc3nc(N)n(-c4ccc(C(F)(F)F)cc4)c(=O)c3c2)c1
7.3 h

Note, next up: C[S+]([O-])c1cccc(-c2ccc3nc(N)n(-c4ccc(C(F)(F)F)cc4)c(=O)c3c2)c1 (centres unmarked)
6.2 h

----------
assay: in vitro; conditions: Chinese hamster
PARAMETER: IC50

Worked cases, IC50 given:
[[record]]
mol = "Nc1nc2ccc(-c3cccc(C(=O)NCCO)c3)cc2c(=O)n1-c1ccc(C(F)(F)F)cc1"
parameter = "IC50"
reported = "> 50 µM"

[[record]]
mol = "NC(=O)c1cccc(-c2ccc3nc(N)n(-c4ccc(C(F)(F)F)cc4)c(=O)c3c2)c1"
parameter = "IC50"
reported = "> 100 µM"

[[record]]
mol = "Nc1nc2ccc(-c3cccc(S(=O)(=O)C4CC4)c3)cc2c(=O)n1-c1ccc(C(F)(F)F)cc1"
parameter = "IC50"
reported = "0.021 µM"

[[record]]
mol = "Cc1ccc(S(C)(=O)=O)cc1-c1ccc2nc(N)n(-c3ccc(C(F)(F)F)cc3)c(=O)c2c1"
parameter = "IC50"
reported = "> 100 µM"

[[record]]
mol = "CC(C)(C)c1cccc(-c2ccc3nc(N)n(-c4ccc(C(F)(F)F)cc4)c(=O)c3c2)c1"
parameter = "IC50"
reported = "> 100 µM"


Returns the measured IC50 for the input compound. Input: CN(C)C(=O)c1cccc(-c2ccc3nc(N)n(-c4ccc(C(F)(F)F)cc4)c(=O)c3c2)c1
0.64 µM

Note, next up: Nc1nc2cc(-c3cccc(C(F)(F)F)c3)ccc2c(=O)n1-c1ccc(C(F)(F)F)cc1
> 50 µM
